- tested_system: P. falciparum apicoplast DNA polymerase (Pf-apPOL) (Plasmodium falciparum)
- measurement_notes: Fluorescence-based high-throughput DNA polymerase assay (molecular beacon), primary screen and dose-response
- Format: biochemical
- measurement_parameters: DRC-2; 180'; concentration 40
Returns True if the recorded % inhibition apPOL 180' is greater than or equal to 50%, and False otherwise.

Quick check, % inhibition apPOL 180' >= 50%? O=C(NC(C(Cl)Cl)S(=O)(=O)c1ccccc1)c1ccccc1 (centres unmarked) [KU0045239] True

Check if % inhibition apPOL 180' >= 50% (inclusive). Item: C#CC(C=CC)OC(=O)c1ccccc1C(=O)O (centres unmarked) [Molecule 61, CC=CC(OC(=O)c1ccccc1C(=O)O)C#C] False

Hi team, for Cc1ccc(NC(=O)Cn2ccc3c(=O)[nH]ccc32)cc1F [Molecule 48, O=C(Cn1ccc2c1cc[nH]c2=O)Nc1ccc(c(c1)F)C] , is the recorded % inhibition apPOL 180' at or above 50%? True

Form field: % inhibition apPOL 180' at least 50%? Entry: CC(=O)Nc1cc(C(=O)NC(C)C)c2ccc(C)nc2c1 [KU0206312] True

Say whether Cc1ccc(C)n1-c1ccc(C(=O)NNC(=O)c2ccc3nccnc3c2)cc1 [Molecule 53] shows % inhibition apPOL 180' of 50% or more. True

Can Cn1nc(C(=O)N2CCc3c(nc4cc(-c5ccccc5)[nH]n4c3=O)C2)c2ccccc21 [Molecule 18] be said to have % inhibition apPOL 180' at or above 50%? False

----------
- tested_system: P. falciparum apicoplast DNA polymerase (Pf-apPOL) (Plasmodium falciparum)
- measurement_notes: Fluorescence-based high-throughput DNA polymerase assay (molecular beacon), primary screen and dose-response
- Format: biochemical
- measurement_parameters: DRC-2; 180'; concentration 80
quantity_measured: % inhibition apPOL 180' (%)
The answer is to be given in %; state only the numeric part.

Annotate the molecule NC(=O)c1cc[n+](CC2=C(C(=O)[O-])N3C(=O)[C@@H](NC(=O)[C@@H](c4ccccc4)S(=O)(=O)[O-])[C@H]3SC2)cc1.[Na+] with its measured % inhibition apPOL 180'. 83

Annotate the molecule COc1ccc(C(=O)N2CCc3c(nc4cc(-c5ccccc5Cl)[nH]n4c3=O)C2)cn1 with its measured % inhibition apPOL 180'. 57

Give the reported % inhibition apPOL 180' for this molecule. Cc1ccc(-n2nnc(C(=O)O)c2-c2ccccn2)c(F)c1 55

Tell me measured % inhibition apPOL 180' for O=c1cc(-c2ccccc2Cl)oc2c(NS(=O)(=O)c3cc(Cl)cc(Cl)c3O)ccc(O)c12 please. 73

Complete the entry with % inhibition apPOL 180' for O=C(Nc1cccc(C(=O)Nc2ccc(S(=O)(=O)[O-])c3cc(S(=O)(=O)[O-])cc(S(=O)(=O)[O-])c23)c1)Nc1cccc(C(=O)Nc2ccc(S(=O)(=O)[O-])c3cc(S(=O)(=O)[O-])cc(S(=O)(=O)[O-])c23)c1.[Na+].[Na+].[Na+].[Na+].[Na+].[Na+] 86

Given O=c1nc(/C=C/c2ccc(Br)cc2)oc2ccccc12 , respond with its % inhibition apPOL 180'. 79

Answer with reported % inhibition apPOL 180' of COc1cc(Cl)c(C)cc1NC(=O)Cn1ccc2c(=O)[nH]ccc21 68

Write down % inhibition apPOL 180' measured for item O=C(c1c[nH]c2ncccc12)N1CCCC1 [Molecule 63, O=C(c1c[nH]c2c1cccn2)N1CCCC1] 68

Name the recorded % inhibition apPOL 180' of the item O=[N+]([O-])/C=C/c1ccc(-c2ccc(Br)cc2)o1 in your answer. 66

Give % inhibition apPOL 180' for the following molecule: O=C1c2ccccc2C(=O)N1Oc1ccc([N+](=O)[O-])c([N+](=O)[O-])c1 68

In one line, give reported % inhibition apPOL 180' of the entry COc1ccc(/C=C/c2cc(C(=O)O)c3ccccc3n2)cc1 . 45

Complete the entry with % inhibition apPOL 180' for CCCCC(=O)N1CCc2c(nc3cc(-c4ccccc4Cl)[nH]n3c2=O)C1 68

Quick one: give measured % inhibition apPOL 180' for CCN1C(=O)C(=Cc2cccc(OC)c2O)SC1=S 25

Entry CC(=O)c1cc2c(N)c(/C(N)=N/C#N)sc2nc1C needs its % inhibition apPOL 180' filled in; supply it. 54

----------
- tested_system: P. falciparum apicoplast DNA polymerase (Pf-apPOL) (Plasmodium falciparum, UniProt Q8ILY1)
- Sequence (Q8ILY1 entry or part of it): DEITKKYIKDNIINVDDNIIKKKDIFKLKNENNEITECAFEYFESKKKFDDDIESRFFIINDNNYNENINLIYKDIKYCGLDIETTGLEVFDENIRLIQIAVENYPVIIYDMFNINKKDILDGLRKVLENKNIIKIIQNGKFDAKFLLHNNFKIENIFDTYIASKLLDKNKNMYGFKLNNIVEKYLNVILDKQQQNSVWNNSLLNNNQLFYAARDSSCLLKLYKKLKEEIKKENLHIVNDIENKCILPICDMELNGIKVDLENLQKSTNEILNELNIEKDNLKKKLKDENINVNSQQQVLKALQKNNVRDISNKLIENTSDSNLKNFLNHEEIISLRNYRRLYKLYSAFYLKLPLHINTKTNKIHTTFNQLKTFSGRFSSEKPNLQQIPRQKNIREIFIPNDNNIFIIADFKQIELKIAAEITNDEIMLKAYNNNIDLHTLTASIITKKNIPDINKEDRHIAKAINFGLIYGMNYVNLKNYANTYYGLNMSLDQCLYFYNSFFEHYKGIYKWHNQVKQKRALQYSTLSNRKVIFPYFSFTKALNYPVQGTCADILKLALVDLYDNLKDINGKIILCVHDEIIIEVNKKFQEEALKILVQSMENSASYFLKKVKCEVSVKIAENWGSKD
- measurement_notes: Fluorescence-based high-throughput DNA polymerase assay (molecular beacon), primary screen and dose-response;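 note: test concentration in µM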
- Format: biochemical
- measurement_parameters: DRC-2; 180'; conc 40
quantity_measured: % inhibition apPOL 180' (%)
API: value field is a number in %; no unit string.

Let me know recorded % inhibition apPOL 180' for O=C1NN(c2ccc(Cl)c(Cl)c2)C(=O)/C1=C/c1ccc(-c2ccc3c(c2)C(=O)OC3)o1 , thanks. 63

Report measured % inhibition apPOL 180'; entry is C=CC1=C(C)c2cc3[nH]c(cc4nc(cc5[nH]c(cc1n2)c(C)c5CCC(=O)O)C(CCC(=O)O)=C4C)c(C)c3C=C 80

Retrieve % inhibition apPOL 180' measured for CC(C)CCNC(=O)c1cnn2c(O)cc(CSc3ccc(Cl)cc3)nc12 and print it. 75

Kindly indicate its recorded % inhibition apPOL 180'. Item: Cc1cc(C)c2c(c1)C1C=CCC1C(c1ccc(C(=O)O)cc1)N2 (centres unmarked) 83

Tell me measured % inhibition apPOL 180' for Cc1cccc(NC(=O)Cn2ccc3c(=O)[nH]ccc32)c1C [Molecule 11, O=C(Cn1ccc2c1cc[nH]c2=O)Nc1cccc(c1C)C] please. 77

Give the reported value of % inhibition apPOL 180' for this record: Cc1ccc(CNC(=O)c2cnn3c(O)cc(CSc4ccc(Cl)cc4)nc23)cc1 80

Determine its reported % inhibition apPOL 180': O=C1Nc2ccc(I)cc2C1=Cc1cc(Br)c(O)c(Br)c1 72

Output measured % inhibition apPOL 180' for this item: Cc1ccccc1NC(=O)Cn1ccc2c(=O)[nH]ccc21 [Molecule 50, O=C(Cn1ccc2c1cc[nH]c2=O)Nc1ccc(cc1)C] 78

----------
Assignment: determine reported % inhibition T4 70' 10 for the given compounds.
- tested_system: bacteriophage T4 DNA polymerase (Enterobacteria phage T4)
- Construct: made in house
- Sequence (P04415 whole entry): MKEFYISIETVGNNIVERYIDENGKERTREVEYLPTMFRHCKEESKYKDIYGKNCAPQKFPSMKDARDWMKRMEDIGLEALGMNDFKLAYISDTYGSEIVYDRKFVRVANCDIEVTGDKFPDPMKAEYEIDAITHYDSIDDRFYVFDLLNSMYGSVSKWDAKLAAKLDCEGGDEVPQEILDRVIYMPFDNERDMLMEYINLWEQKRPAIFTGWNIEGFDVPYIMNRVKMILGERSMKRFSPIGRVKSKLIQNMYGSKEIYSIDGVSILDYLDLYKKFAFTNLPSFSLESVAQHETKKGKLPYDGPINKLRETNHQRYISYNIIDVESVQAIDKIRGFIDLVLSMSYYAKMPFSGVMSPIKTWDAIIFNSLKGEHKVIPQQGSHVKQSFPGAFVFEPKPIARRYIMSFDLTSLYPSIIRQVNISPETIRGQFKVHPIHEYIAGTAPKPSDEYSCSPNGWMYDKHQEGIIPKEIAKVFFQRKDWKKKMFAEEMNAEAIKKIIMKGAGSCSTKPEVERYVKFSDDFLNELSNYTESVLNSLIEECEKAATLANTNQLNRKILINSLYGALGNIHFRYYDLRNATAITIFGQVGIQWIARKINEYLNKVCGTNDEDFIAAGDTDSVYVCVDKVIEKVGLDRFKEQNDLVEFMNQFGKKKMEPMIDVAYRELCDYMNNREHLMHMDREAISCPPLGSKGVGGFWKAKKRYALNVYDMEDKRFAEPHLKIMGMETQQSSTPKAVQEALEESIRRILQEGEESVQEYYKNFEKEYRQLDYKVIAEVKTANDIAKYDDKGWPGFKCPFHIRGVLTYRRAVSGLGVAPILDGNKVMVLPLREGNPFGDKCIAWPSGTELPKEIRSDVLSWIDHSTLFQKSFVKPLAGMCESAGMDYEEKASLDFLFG
- measurement_notes: Counter-screen against bacteriophage T4 DNA polymerase
- Type: biochemical
- measurement_parameters: DRC-1; read at 70'; concentration 10
Provide only the numeric value, understood in %.

Please look at Cn1nc(-c2nc(-c3ccccc3)no2)c2c1CCN(C(=O)Cc1cccs1)C2 [Molecule 58] and tell me its recorded % inhibition T4 70' 10 on bacteriophage T4 DNA polymerase (Enterobacteria phage T4). 13

State, for bacteriophage T4 DNA polymerase (Enterobacteria phage T4), measured % inhibition T4 70' 10 of the compound listed here: COc1ccc(/C=C/c2cc(C(=O)O)c3ccccc3n2)cc1 [Molecule 5, COc1ccc(cc1)/C=C/c1nc2ccccc2c(c1)C(=O)O] 5.827

# assay system bacteriophage T4 DNA polymerase (Enterobacteria phage T4): give % inhibition T4 70' 10 of COc1ccc(C2CC(c3ccc(Cl)cc3Cl)Nc3nc(N)nn32)cc1OC (centres unmarked) [Molecule 43] 1.77

Enter % inhibition T4 70' 10 (test system bacteriophage T4 DNA polymerase (Enterobacteria phage T4)) for COc1ccccc1CC(=O)N1CCc2c(nc3cc(-c4ccccc4Cl)[nH]n3c2=O)C1 [Molecule 49] -6

Fetch value of % inhibition T4 70' 10 on bacteriophage T4 DNA polymerase (Enterobacteria phage T4) for Cc1nc(C)c2c(n1)N(CC1CCCCC1)C(=O)CC2 [KU0218606] . -4.959

Report value: % inhibition T4 70' 10, system: bacteriophage T4 DNA polymerase (Enterobacteria phage T4), compound: C#CC(C=CC)OC(=O)c1ccccc1C(=O)O (centres unmarked) [Molecule 61, CC=CC(OC(=O)c1ccccc1C(=O)O)C#C] 15.1139

Provide % inhibition T4 70' 10, tested on bacteriophage T4 DNA polymerase (Enterobacteria phage T4), for Nc1cc(Oc2ccc(O)c(N)c2)ccc1O [KU0034728] . 12.3114

Enter recorded % inhibition T4 70' 10 with bacteriophage T4 DNA polymerase (Enterobacteria phage T4) for CC(=O)OCC1=C(C(=O)[O-])N2C(=O)[C@@H](NC(=O)Cc3cccs3)[C@H]2SC1.[Na+] [Molecule 73] here. 17.9088

Recall the reported % inhibition T4 70' 10 of N#Cc1c(O)nc(N2CCCCC2)nc1-c1ccc2c(c1)OCO2 [KU0083146] when tested on bacteriophage T4 DNA polymerase (Enterobacteria phage T4). -0.8576

Supply % inhibition T4 70' 10 measured with bacteriophage T4 DNA polymerase (Enterobacteria phage T4) for CC(=O)Nc1cc(C(=O)c2cccs2)nn(-c2ccc(Cl)cc2)c1=O [KU0267905] . 6.193

Please tell me the measured % inhibition T4 70' 10 for O=C1CSC2=NC3=C(CCc4ccccc43)C(c3cccs3)N12 (centres unmarked) [Molecule 59, O=C1CSC2=NC3=C(C(N12)c1cccs1)CCc1c3cccc1] ; system: bacteriophage T4 DNA polymerase (Enterobacteria phage T4). 14.1389

GET % inhibition T4 70' 10 | system: bacteriophage T4 DNA polymerase (Enterobacteria phage T4) | item: Cn1nc(-c2nnc(-c3ccccc3F)o2)c2c1CCN(C(=O)c1ccccc1Cl)C2 [Molecule 34] -2

Check bacteriophage T4 DNA polymerase (Enterobacteria phage T4) data and give % inhibition T4 70' 10 for Cc1ccsc1Cn1c(C)ccc1C [Molecule 70, Cc1ccsc1Cn1c(C)ccc1C] . 6.944

Report value only: % inhibition T4 70' 10, bacteriophage T4 DNA polymerase (Enterobacteria phage T4), CCCc1ccc(Oc2coc3cc(OC)ccc3c2=O)cc1 [KU0193249] 6.283

Tell me its % inhibition T4 70' 10 on bacteriophage T4 DNA polymerase (Enterobacteria phage T4): Cc1cccc(-c2noc(C(=O)NNC(=O)C(Cl)(Cl)Cl)n2)c1 [KU0266208] 1.596

State measured % inhibition T4 70' 10 of the compound CC(C)CC(C(=O)O)N1C(=O)C2C3C=CC(C2C1=O)C1C(=O)N(C(CC(C)C)C(=O)O)C(=O)C31 (centres unmarked) [KU0193449] with bacteriophage T4 DNA polymerase (Enterobacteria phage T4). 2.619

Write down the reported % inhibition T4 70' 10 (system: bacteriophage T4 DNA polymerase (Enterobacteria phage T4)) of O=C(CCc1csc(NC(=O)Nc2ccccc2)n1)Nc1nc2ccccc2s1 [KU0177354] 12.106

Write % inhibition T4 70' 10 of O=C(c1ccccc1)N1CCc2c(nc3cc(-c4ccccc4)[nH]n3c2=O)C1 [Molecule 30] ; system used: bacteriophage T4 DNA polymerase (Enterobacteria phage T4) -7.7135

Provide bacteriophage T4 DNA polymerase (Enterobacteria phage T4) % inhibition T4 70' 10 reading for Cc1ccc(N2CCC(NC(=O)Cc3cccs3)C2=O)cc1C (centres unmarked) [Molecule 57, O=C(NC1CCN(C1=O)c1ccc(c(c1)C)C)Cc1cccs1] . 15.0423

Please indicate recorded % inhibition T4 70' 10 of Cc1cc2[nH]c(C(=O)Nc3ccc(F)cc3)c(CN3CCOCC3)c2s1 [Molecule 60] measured with bacteriophage T4 DNA polymerase (Enterobacteria phage T4). 13.8719
